organism: Homo sapiens; test: To identify inhibition of the IFN signalling (Jak-Stat) pathway via expression of an eGFP reporter gene under the control of an IFN-stimulated response element (ISRE) containing MxA promoter.; type: functional; design: scale not given: direction of the effect not stated beside the values; details: 30 µM
ATTRIBUTE MEASURED: Percent Effect (%)
Write the value in % as a bare number.

See these solved cases before continuing.
In [3]: df
Out[3]:
                                   molecule  attribute_measured  units_of_measure  measured_value
0  Cc1cc(C)n(CC2CCCN2CCc2ccncc2)n1 (configuration not stated)      Percent Effect                 %            5.12
1  Cn1cc(CN2CCn3cc(CNC(=O)c4cccn4C)nc3C2)cn1      Percent Effect                 %            3.52
2  Cc1cccc(CN2C(=O)CO[C@@H]3CN(Cc4nccn4C)C[C@H]32)c1      Percent Effect                 %            12.6
3  O=C1CC(c2cccc(O)c2)c2c(c(C(=O)O)cn2-c2ccccc2)N1 (configuration not stated)      Percent Effect                 %            7.35
4     CCN(CC(=O)NC)C(=O)Cc1nc(-c2ccco2)oc1C      Percent Effect                 %            10.7
5  CCOCC1CN(Cc2ccc(OC)cc2)Cc2nn(C)cc21 (configuration not stated)      Percent Effect                 %            15.7
6  CC(Cc1ccco1)NC(=O)Nc1ccc(S(C)(=O)=O)nc1 (configuration not stated)      Percent Effect                 %            21.8
7              Cn1ccc(NC(=O)Cc2cccc(F)c2)n1      Percent Effect                 %              15

What Percent Effect value was documented for this molecule, "CC(C)CN1CCC2(CCN(C(=O)c3ccc(F)cc3)CC2)C1=O" ?
-20.9

What Percent Effect value was documented for this molecule, CC(C)c1n[nH]c(C2CN(C(=O)CCCn3cccn3)CCO2)n1 (configuration not stated) ?
-1.34

What Percent Effect value was documented for this molecule, CC(C)NC(=O)C1CN(C(N)=O)Cc2ccnn2C1 (configuration not stated) ?
0.0597

What Percent Effect value was documented for this molecule, "O=C(CCc1ccccc1)NCC1CCN(Cc2ccsc2)CC1" ?
20.5

====

Known Percent Effect of a selection of compounds
biological target: Chromo domain-containing protein 1 (Saccharomyces cerevisiae (strain ATCC 204508 / S288c) (Baker's yeast)); experiment: ScCHD-1 Enzyme Inhibition Assay; assay type: functional; design: scale not given: in the data most compounds retested in dose-response had high values; details: 30 µM
Write the value in % as a bare number.

See these solved cases before continuing.
>>> df
                                   compound  attribute_measured  measured_value
0  COc1cccc(N2CCN(CC(O)c3cc(C)ccc3C)CC2)c1 (configuration not stated)      Percent Effect           -5.09
1     c1cnc(NCc2ncn3c2CN(Cc2cccnc2)CCC3)nc1      Percent Effect          -0.718
2  Cc1ccc(S(=O)(=O)N2CCC3(CC(C(=O)NCC4CC4)=NO3)C2)cc1 (configuration not stated)      Percent Effect           -3.09
3         Cc1cc2ccccc2n1CCC(=O)NCc1ncc[nH]1      Percent Effect           -9.55
4      Cc1nnc(CN2CCN(CCOc3ccccc3C#N)CC2)n1C      Percent Effect           -3.26
5  CCn1ncnc1C(NC(=O)CC1CCN(C(C)C)CC1)C1CC1 (configuration not stated)      Percent Effect           -3.37
6  Cc1nc2ccccn2c1CN(Cc1cccnc1)CC1CCCO1 (configuration not stated)      Percent Effect           -1.23
7  Cn1cc(CNCCOc2ccc(F)c(F)c2)c(-c2cccnc2)n1      Percent Effect           -3.29
8  c1ccc(-n2ncc(CN3CCCC3Cn3cccn3)n2)cc1 (configuration not stated)      Percent Effect            3.05
9         CC(C)CNC(=O)Nc1ccc(CN2CCOC2=O)cc1      Percent Effect           -1.07

What Percent Effect value was documented for this compound, "CC(C)N1CCn2c(nc3cc(C(N)=O)ccc32)C1" ?
-11.8

What Percent Effect value was documented for this compound, "O=C(NCCN1CCc2ccccc2C1)c1scnc1Cl" ?
-6.08
